Test: Inhibition of protein phosphatase 2A
ATTRIBUTE MEASURED: IC50

If you can, please state the reported IC50 value of "C[C@@](O)(/C=C/[C@H]1CC=CC(=O)O1)[C@@H](C[C@@H](O)\C=C/C=C\C=C\CO)OP(=O)(O)O" . 1.5 nM
